Assay: Single-dose IV PK of 4-HPR in mice with and without ABT
Format: in vivo, male C57Bl/6 mice
Conditions: male, C57Bl/6, mouse, plasma, iv, 2 mg/kg, single-dose 2 mg/kg IV, −ABT; 10% DMSO, 90% PEG400; read-out: Apparent t1/2 (converted)
METRIC_NAME: half-life (h)
Answer with a number only, understood to be in h.

Ask: Would you kindly share the measured half-life for CC1=C(/C=C/C(C)=C/C=C/C(C)=C/C(=O)Nc2ccc(O)cc2)C(C)(C)CCC1 [4-HPR, N-(4-hydroxyphenyl) retinamide] ?
Result: 8.1

----------
Assay: Plasma protein binding by Rapid Equilibrium Dialysis
Type: in vitro ADME
Settings: male, C57BL6, mouse plasma diluted to 10% v/v in PBS, pH 7.4, RED 24 h, 37 °C, corrected for dilution, read-out: % Bound
METRIC_NAME: fraction unbound at 24 h, 2000 ng/mL

Ask: For the compound CC1=C(/C=C/C(C)=C/C=C/C(C)=C/C(=O)Nc2ccc(O)cc2)C(C)(C)CCC1 [4-HPR, N-(4-hydroxyphenyl) retinamide] , what fraction unbound at 24 h, 2000 ng/mL is on record?
Result: < 0.0005

----------
Experiment: Single-dose IV PK of 4-HPR in mice with and without ABT
Assay type: in vivo, male C57Bl/6 mice
Details: male, C57Bl/6, mouse, plasma, iv, 2 mg/kg, single-dose 2 mg/kg IV, +ABT (50 mg/kg, b.i.d); read-out: Apparent t1/2 (converted)
METRIC_NAME: half-life

Ask: Given the molecule CC1=C(/C=C/C(C)=C/C=C/C(C)=C/C(=O)Nc2ccc(O)cc2)C(C)(C)CCC1 [4-HPR, N-(4-hydroxyphenyl) retinamide] , what is its reported half-life?
Result: 12.1 h
